Here's what we have: GI50 numbers for HCT-15.

Please review the following examples before continuing.
Req: GI50 for `C=C(CCCO)[C@@H]1CC[C@@](C)(O)[C@H]1C` ?
Resp: > 100 µM

Req: Next molecule: `CC(C)(C)OC(=O)N(O)[C@@H]1CC[C@H](n2cnc3c(N)ncnc32)C1`
Resp: > 100 µM

Req: Next molecule: `O=C(CSc1nc2ccc(I)cc2c(=O)n1Cc1ccccc1)NN1C(=O)c2ccccc2C1=O`
Resp: 30.1 µM

Req: Next molecule: `CCOC(=O)c1ccc(C(=O)/C(C#N)=C2\CCCN2C)[nH]1`
Resp: > 100 µM

Req: Next molecule: CC(C)C1CN(C(=O)OCc2ccccc2)C2N1C(=O)C2(C)OCc1ccccc1 (stereo not drawn)
Resp: 44.8 µM

Req: Next molecule: CCc1cccc(C)c1N1C(=O)C(=O)C(c2nc3ccccc3o2)/C(=N/NC(=S)NN)C1=O (stereo not drawn)
Resp: > 100 µM

Next:
Req: GI50 for `O=c1[nH]c(=O)n(C/C=C/CO)nc1Br` ?
Resp: > 100 µM

Req: Next molecule: `CCOC(=O)C(CCc1ncnc2c1ncn2Cc1ccccc1)(CCc1ncnc2c1ncn2Cc1ccccc1)C(=O)OCC`
Resp: 52.7 µM

Req: Next molecule: `CN(C)Cc1cc(C(=O)/C=C/c2ccccc2Cl)cc(CN(C)C)c1O`
Resp: 14.7 µM
